# targetEntity: E. coli RNA polymerase σ70 holoenzyme (Escherichia coli (strain K12), UniProt P0A8T7+P0A8V2)
# assayMethodText: Fluorescence-detected assay of inhibition of Escherichia coli RNA polymerase
# settings: T4 N25 promoter DNA, RiboGreen fluorescence, read-out: RNAP-inhibitory activity E. coli RNAP IC50
pIC50: −log10 of the molar value.
Could you label it 1 if measured pIC50 is 6 or higher, and 0 otherwise?

Answered cases to consult:
# compoundString, assignedCategory
records = [
    ("O=C(NCc1ccc(Oc2ccc(F)cc2)c(F)c1)c1c(O)cc(O)cc1O", 1),
    ("O=C(NCc1ccc(Oc2ccc(F)cc2)c(Cl)c1)c1c(O)cc(O)cc1O", 1),
    ("O=C(NCCc1ccc(Cl)cc1)c1c(O)cc(O)c(Cl)c1O", 0),
]

Q) Form field: pIC50 at least 6? Entry: O=C(NCc1ccc(Oc2ccccc2)cc1C(F)(F)F)c1c(O)cc(O)cc1O
A) 1

* * *

# targetEntity: S. aureus RNA polymerase core enzyme + S. aureus σA (Staphylococcus aureus (strain NCTC 8325 / PS 47), UniProt P47768+Q2G0N5)
# assayMethodText: Fluorescence-detected assay of inhibition of Staphylococcus aureus RNA polymerase
# settings: T4 N25 promoter DNA, RiboGreen fluorescence, read-out: RNAP-inhibitory activity S. aureus RNAP IC50
pIC50: −log10 of the molar value.
Assign yes (1) to entries whose pIC50 meets or exceeds 5; assign no (0) to the rest.

# compound, assignedCategory
measured = [
    ("O=C(NCc1ccc(Oc2ccc(F)cc2)cc1Cl)c1c(O)cc(O)cc1O [Compound 0MTK181]", "no (0)"),
    ("CN(CCc1ccc(Cl)cc1)C(=O)c1c(O)cc(O)cc1O [Compound 0MTK128]", "no (0)"),
    ("COc1ccc(Oc2ccc(CCNC(=O)c3c(O)cc(O)cc3O)cc2)cc1 [Compound 0MTK260]", "yes (1)"),
    ("O=C(NCCc1ccc(Oc2cc(Cl)cc(Cl)c2)cc1)c1c(O)cc(O)c(Cl)c1O [Compound 0MTK237]", "yes (1)"),
    ("O=C(NCCc1ccc(Oc2cccc(N3CCOCC3)c2)cc1)c1c(O)cc(O)cc1O [Compound 0MTK263]", "yes (1)"),
    ("O=C(NCCc1ccc(Oc2ccc(Cl)cc2)cc1)c1c(O)c(Cl)c(O)c(Cl)c1O [Compound 0MTK233]", "no (0)"),
]

Then there is this compound:
Q) Quick check: does O=C(NCc1ccc(Oc2ccc(F)cc2)c(Cl)c1)c1c(O)cc(O)cc1O [Compound 0MTK174] have pIC50 greater than or equal to 5?
A) no (0)

* * *

# targetEntity: E. coli RNA polymerase σ70 holoenzyme (Escherichia coli (strain K12), UniProt P0A8T7+P0A8V2)
# assayMethodText: Fluorescence-detected assay of inhibition of Escherichia coli RNA polymerase
# settings: T4 N25 promoter DNA, RiboGreen fluorescence, read-out: RNAP-inhibitory activity E. coli RNAP IC50
pIC50: −log10 of the molar value.
Give T when the value for pIC50 is at least 6. Give F when it is less.

Previously resolved entries follow.
# compoundString, assignedCategory
measured = [
    ("O=C(NCCc1ccc(Oc2ccc(F)cc2)cc1)c1c(O)cc(O)c(Cl)c1O", "F"),
    ("O=C(NCCc1ccc(Oc2ccccc2)cc1)c1c(O)c(Cl)c(O)c(Cl)c1O", "F"),
]

Q) hey, is pIC50 for this one >= 6? O=C(NCCc1ccc(Oc2ccc(-c3cccnc3)cc2)cc1)c1c(O)cc(O)cc1O
A) T

Q) Please indicate if the recorded pIC50 for O=C(NCCc1ccc(C(F)(F)F)cc1)c1c(O)c(Cl)c(O)c(Cl)c1O meets or exceeds 6.
A) F

Q) Check this molecule for pIC50 at or above 6: O=C(NCCCc1ccc(Cl)cc1)c1c(O)cc(O)cc1O
A) F

* * *

# targetEntity: S. aureus RNA polymerase core enzyme + S. aureus σA (Staphylococcus aureus (strain NCTC 8325 / PS 47), UniProt P47768+Q2G0N5)
# assayMethodText: Fluorescence-detected assay of inhibition of Staphylococcus aureus RNA polymerase
# settings: T4 N25 promoter DNA, RiboGreen fluorescence, read-out: RNAP-inhibitory activity S. aureus RNAP IC50
In this section we review reported IC50 values for a set of compounds.
The figure you give is taken to be in µM; do not add the unit.

# compound, readingUnit, IC50
rows = [
    ("CCC1=C(O)C(CC)(CC)C(=O)C(C(=O)NCCc2ccc(Oc3ccc(F)cc3)cc2)=C1O [Compound 3RKHTK161]", "µM", 13),
]

Q) Please look at this compound and report its IC50: O=C(NCCc1ccc(Oc2ccc(N3CCOCC3)cc2)cc1)c1c(O)cc(O)cc1O [Compound 0MTK261]
A) 7.5

Q) Quote IC50 reported for O=C(NCCc1ccc(C(F)(F)F)cc1)c1c(O)cc(O)cc1O [Compound 0MTK207] please.
A) 13

Q) State its IC50 for this compound: O=C(NCCc1ccc(Oc2cccc(Cl)c2)cc1)c1c(O)cc(O)cc1O [Compound 0MTK256]
A) 10

Q) Read off the recorded IC50 for O=C(NCCc1ccc(Cl)cc1)c1c(O)cc(O)c(Cl)c1O [Compound 0MTK222]
A) 9

Q) State its IC50: O=C(NCc1ccc(Oc2ccc(F)cc2)cc1C(F)(F)F)c1c(O)cc(O)cc1O [Compound 0MTK155]
A) 8.1

* * *

# Lookup of reported pIC50 keyed by entry
# targetEntity: E. coli RNA polymerase σ70 holoenzyme (Escherichia coli (strain K12), UniProt P0A8T7+P0A8V2)
# assayMethodText: Fluorescence-detected assay of inhibition of Escherichia coli RNA polymerase
# settings: T4 N25 promoter DNA, RiboGreen fluorescence, read-out: RNAP-inhibitory activity E. coli RNAP IC50
pIC50 field: float, defined as -log10 of concentration (mol/L).

Worked cases, answers included:
# compound, pIC50
rows = [
    ("O=C(NCCc1ccc(Oc2ccc(N3CCOCC3)cc2)cc1)c1c(O)cc(O)cc1O [Compound 0MTK261]", 5.82),
    ("O=C(NCCc1ccc(Oc2cc(Cl)cc(Cl)c2)cc1)c1c(O)cc(O)cc1O [Compound 0MTK180]", 6.08),
]

Switching to the query record.
Q) Given O=C(NCCc1ccc(Oc2ccc(F)cc2)cc1)c1c(O)cc(O)cc1O [Compound 0MTK156] , respond with its pIC50.
A) 6.09

Reference for the values: patent US11572337B2
